Data credit: patent US9408856B2

test: Solubility of fluasterone in solvents and mixed solvents; type: physicochemical; conditions: cetyl alcohol:ethanol (20%:80%, w/w), organic solvent or mixture, thermodynamic from solid, cetyl alcohol:ethanol (20%:80%, w/w); room temperature
quantity: solubility

{"compound": "C[C@]12CCCCC1=CC[C@@H]1[C@@H]2CC[C@]2(C)C(=O)[C@H](F)C[C@@H]12 [Fluasterone, 16α-fluoro-5-androsten-17-one]", "endpoint_result": "< 12 mg/mL"}

---

tested on: dexamethasone-induced thymic and splenic atrophy; experiment: Dexamethasone-induced thymic and splenic atrophy in mice; assay type: in vivo, CD-1 mice; conditions: Table 15; steroid 10 mg/kg in Cremophor-saline + dexamethasone
Spleen wt/BW values, listed per item
quantity: Spleen wt/BW

{"compound": "C[C@H]1CC[C@@]2(C)C(=CC[C@@H]3[C@@H]2CC[C@]2(C)C(=O)[C@H](Cl)C[C@@H]32)C1 [3β-methyl-16α-chloro-5-androsten-17-one]", "endpoint_result": 1.6}
{"compound": "C[C@H]1CC[C@@]2(C)C(=CC[C@@H]3[C@@H]2CC[C@]2(C)C(=O)[C@H](F)C[C@@H]32)C1 [3β-methyl-16α-fluoro-5-androsten-17-one]", "endpoint_result": 2.0}
{"compound": "C[C@@H]1C[C@H]2[C@@H]3CC=C4CCCC[C@]4(C)[C@H]3CC[C@]2(C)C1=O [16α-methyl-5-androsten-17-one]", "endpoint_result": 1.5}
{"compound": "C[C@]12CCCCC1=CC[C@@H]1[C@@H]2CC[C@]2(C)C(=O)[C@H](F)C[C@@H]12 [Fluasterone, 16α-fluoro-5-androsten-17-one]", "endpoint_result": 3.2}

---

Spleen wt listing for selected compounds.
test system: dexamethasone-induced thymic and splenic atrophy; assay: Dexamethasone-induced thymic and splenic atrophy in mice; assay type: in vivo, CD-1 mice; design: unit not given here; settings: Table 15; steroid 10 mg/kg in Cremophor-saline + dexamethasone
quantity: Spleen wt

{"chem_smiles": "C[C@H]1CC[C@@]2(C)C(=CC[C@@H]3[C@@H]2CC[C@]2(C)C(=O)[C@H](C)C[C@@H]32)C1", "quantity": "Spleen wt", "endpoint_result": "44.9 + 9.2"}
{"chem_smiles": "C[C@H]1CC[C@@]2(C)C(=CC[C@@H]3[C@@H]2CC[C@]2(C)C(=O)[C@H](F)C[C@@H]32)C1", "quantity": "Spleen wt", "endpoint_result": "50.9 ± 7.5"}
{"chem_smiles": "C[C@@H]1C[C@H]2[C@@H]3CC=C4CCCC[C@]4(C)[C@H]3CC[C@]2(C)C1=O", "quantity": "Spleen wt", "endpoint_result": "37.8 ± 6.1"}
{"chem_smiles": "C[C@]12CCCCC1=CC[C@@H]1[C@@H]2CC[C@]2(C)C(=O)[C@H](F)C[C@@H]12", "quantity": "Spleen wt", "endpoint_result": "80.0 ± 7.7"}
{"chem_smiles": "C[C@H]1CC[C@@]2(C)C(=CC[C@@H]3[C@@H]2CC[C@]2(C)C(=O)[C@H](Cl)C[C@@H]32)C1", "quantity": "Spleen wt", "endpoint_result": "42.3 ± 5.6"}
{"chem_smiles": "C[C@H]1CC[C@@]2(C)C(=CC[C@@H]3[C@@H]2CC[C@]2(C)C(=O)CC[C@@H]32)C1", "quantity": "Spleen wt", "endpoint_result": "70.7 + 4.5"}
